Value source: patent US8722580B2

# Lookup of reported Root growth-promoting activity (root growth rate) keyed by entry
Tested on: Arabidopsis thaliana
Protocol text: Root growth-promoting activity test (Example 9)
Type: in vivo
Recorded conditions: test final concentration 5 ppm (concentration with highest root growth rate); main root length vs control section, 22° C., 10 days
Report the figure in % without appending any unit label.

Worked cases, Root growth-promoting activity (root growth rate) given:
Compound	Recorded result
OCC(O)CNc1nc(-c2ccccc2)c2cc(Cl)ccc2n1 (stereo not shown) [Ic3-41]	134.5
COCCCNc1nc(-c2ccccc2)c2cc(Cl)ccc2n1 [Ic3-38]	141.9
OCCCNc1nc(-c2ccccc2)c2cc(Cl)ccc2n1 [Ic3-3]	163.4

Inquiry: For Clc1ccc2nc(NCC3CCCO3)nc(-c3ccccc3)c2c1 (stereo not shown) [Ic3-37] , what is its reported Root growth-promoting activity (root growth rate)?
Reply text: 138.5

Inquiry: Repeat with OCCCNc1nc(-c2ccccc2)c2cccc(Cl)c2n1 [Ic11-1]
Reply text: 143.9

Inquiry: Repeat with N#CCNc1nc(-c2ccccc2)c2cc(Cl)ccc2n1 [Ic3-26]
Reply text: 136.4

Inquiry: Repeat with Clc1nc(-c2ccccc2)c2c(Cl)cccc2n1 [Ia1-1]
Reply text: 133.3

----------
Target entity: cytokinin receptor CRE1 (Arabidopsis thaliana, UniProt Q9C5U0, S567G/T1018A)
Construct: expressed in transfected cells; host or cells: Saccharomyces cerevisiae TM182 (sln1Δ) transformed with p415CYC-CRE1
Sequence (Q9C5U0 24-1080 S567G/T1018A): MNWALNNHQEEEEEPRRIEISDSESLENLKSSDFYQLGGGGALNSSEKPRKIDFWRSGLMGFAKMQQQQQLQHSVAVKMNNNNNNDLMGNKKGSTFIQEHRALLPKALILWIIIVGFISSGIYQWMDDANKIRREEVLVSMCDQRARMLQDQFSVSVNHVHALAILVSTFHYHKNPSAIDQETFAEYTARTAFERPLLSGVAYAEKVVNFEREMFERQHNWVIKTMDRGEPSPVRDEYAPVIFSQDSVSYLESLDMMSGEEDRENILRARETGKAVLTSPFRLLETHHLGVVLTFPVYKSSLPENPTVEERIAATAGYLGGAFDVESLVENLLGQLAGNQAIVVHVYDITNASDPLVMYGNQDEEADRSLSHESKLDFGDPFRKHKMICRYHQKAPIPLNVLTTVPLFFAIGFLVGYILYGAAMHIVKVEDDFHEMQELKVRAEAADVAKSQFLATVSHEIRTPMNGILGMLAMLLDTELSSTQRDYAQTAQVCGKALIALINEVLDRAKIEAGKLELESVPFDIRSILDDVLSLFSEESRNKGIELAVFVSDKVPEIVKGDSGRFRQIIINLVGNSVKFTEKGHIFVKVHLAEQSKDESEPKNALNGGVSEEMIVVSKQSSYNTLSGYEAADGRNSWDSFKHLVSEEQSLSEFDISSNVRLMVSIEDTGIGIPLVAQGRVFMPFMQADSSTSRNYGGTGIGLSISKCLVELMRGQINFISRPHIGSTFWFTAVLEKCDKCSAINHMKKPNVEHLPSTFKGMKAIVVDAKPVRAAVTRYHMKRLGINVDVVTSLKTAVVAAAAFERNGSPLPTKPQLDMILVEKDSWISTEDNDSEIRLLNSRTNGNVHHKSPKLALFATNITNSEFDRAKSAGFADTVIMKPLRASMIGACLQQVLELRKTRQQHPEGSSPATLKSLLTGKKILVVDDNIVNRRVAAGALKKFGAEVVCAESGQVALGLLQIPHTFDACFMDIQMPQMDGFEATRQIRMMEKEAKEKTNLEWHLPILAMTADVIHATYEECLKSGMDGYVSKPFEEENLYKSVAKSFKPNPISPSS
Protocol text: Inhibition of intracellular signaling from plant-derived cytokinin receptor, growth of transformed yeast cell TM182-CRE1
Format: cell-based
Recorded conditions: read-out: Activity (%) of test substance for inhibiting intracellular signaling from plant-derived cytokinin receptor of cell
# Lookup of reported inhibition at 2 ppm keyed by entry
Report the figure in % without appending any unit label.

Worked cases, inhibition at 2 ppm given:
Mol	Output unit	inhibition at 2 ppm
Clc1ccc2nc(NCc3ccco3)nc(-c3ccccc3)c2c1	%	96.8
CONc1nc(-c2ccccc2)c2cc(Cl)ccc2n1	%	95.5
CCOC(=O)CNc1nc(-c2ccccc2)c2cc(Cl)ccc2n1	%	99

Inquiry: Provide value of inhibition at 2 ppm for this record tested with cytokinin receptor CRE1 (Arabidopsis thaliana, UniProt Q9C5U0, S567G/T1018A): `Clc1ccc2nc(Cl)nc(-c3ccccc3)c2c1`
Reply text: 94.5

Inquiry: Repeat with `OCCNc1nc(-c2ccccc2)c2cc(Cl)ccc2n1`
Reply text: 94.6

Inquiry: Repeat with `CN(N)c1nc(-c2ccccc2)c2cc(Cl)ccc2n1`
Reply text: 97.7

Inquiry: Repeat with `OCCSc1nc(-c2ccccc2)c2cc(Cl)ccc2n1`
Reply text: 97.7

----------
Tested on: Arabidopsis thaliana
Protocol text: Root growth-promoting activity test (Example 9)
Assay type: in vivo
Recorded conditions: test final concentration 10 ppm (concentration with highest root growth rate); main root length vs control section, 22° C., 10 days
# Lookup of reported Root growth-promoting activity (root growth rate) keyed by entry
Report the figure in % without appending any unit label.

Worked cases, Root growth-promoting activity (root growth rate) given:
Molecule	Output unit	Recorded result
NC(=O)CNc1nc(-c2ccccc2)c2cc(Cl)ccc2n1	%	142.2
CC(O)CNc1nc(-c2ccccc2)c2cc(Cl)ccc2n1 (centres unmarked)	%	169.0
CC(C)Nc1nc(-c2ccccc2)c2cc(Cl)ccc2n1	%	120.4
NNc1nc(-c2ccccc2)c2cc(Cl)ccc2n1	%	137.8
NCCSc1nc(-c2ccccc2)c2cc(Cl)ccc2n1	%	147.6

Inquiry: For `Fc1ccc2nc(Cl)nc(-c3ccccc3)c2c1` , what is its reported Root growth-promoting activity (root growth rate)?
Reply text: 139.7

Inquiry: Repeat with `C=CCNc1nc(-c2ccccc2)c2cc(Cl)ccc2n1`
Reply text: 122.4

Inquiry: Repeat with `CN(C)c1nc(-c2ccccc2)c2cc(Cl)ccc2n1`
Reply text: 140.0

Inquiry: Repeat with `CNc1nc(-c2ccccc2)c2cc(Cl)ccc2n1`
Reply text: 150.0

Inquiry: Repeat with `N#Cc1ccc2nc(NCCCO)nc(-c3ccccc3)c2c1`
Reply text: 141.5

Inquiry: Repeat with `CC(C)CCNc1nc(-c2ccccc2)c2cc(Cl)ccc2n1`
Reply text: 120.6
